Target or system: HLA-B*35:01
Protocol: IEDB peptide-MHC binding, purified MHC/competitive/radioactivity; filed as Kd, often an IC50 or EC50 that approximates it; bounds were set here for any values at or beyond the usual limits of such assays
Conditions: source organism: Triticum aestivum
Listed below: Kd values for each entry.

# Ordered residues, Target or system, Measurement units, Bound operator, Kd
measured = [
    ("LPAMCNVY", "HLA-B*35:01", "µM", "=", 0.0413),
    ("FPGQQQPF", "HLA-B*35:01", "µM", "≥", 87.8),
]

----------
Target or system: HLA-A*02:06
Protocol: IEDB peptide-MHC binding, purified MHC/competitive/radioactivity; filed as Kd, often an IC50 or EC50 that approximates it; bounds were set here for any values at or beyond the usual limits of such assays
Conditions: source organism: Dengue virus 1 Brazil/97-11/1997
Result type: Kd (nM)

# Ordered residues, Target or system, Quantitative readout
rows = [
    ("FKMRPMFAV", "HLA-A*02:06", 55.5),
]
